- ASSAYED_TARGET: F13H6.1 (F13H6.1) (Caenorhabditis elegans) (UniProt H2KZR6)
- Sequence: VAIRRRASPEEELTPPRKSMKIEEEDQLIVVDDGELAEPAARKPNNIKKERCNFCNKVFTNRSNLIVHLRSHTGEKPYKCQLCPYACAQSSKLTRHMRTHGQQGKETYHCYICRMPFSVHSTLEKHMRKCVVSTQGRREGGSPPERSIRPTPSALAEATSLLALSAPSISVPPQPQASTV
Exercise: for every item that follows, state its recorded binding signal (PBM E-score (-0.5 to 0.5)).
One number for each entry.

Check out these entries, answers already filled in.
ENTRY_SEQUENCE	READOUT_NUMBER
AATGGTCA (double strand) [8-mer AATGGTCA]	0.495
CTTGACCA (double strand) [8-mer CTTGACCA]	0.496
ACTGGTCA (double strand) [8-mer ACTGGTCA]	0.495
ACTGACCA (double strand) [8-mer ACTGACCA]	0.497
AGTGGTCA (double strand) [8-mer AGTGGTCA]	0.497
AGTGACCA (double strand) [8-mer AGTGACCA]	0.498
GATGACCA (double strand) [8-mer GATGACCA]	0.494
CTGACCAC (double strand) [8-mer CTGACCAC]	0.495
GTTGACCA (double strand) [8-mer GTTGACCA]	0.494
AAGTGACC (double strand) [8-mer AAGTGACC]	0.494

Dear colleague, could you please provide binding signal (PBM E-score (-0.5 to 0.5)) for the sequences listed below?
1. GGTGGTCA (double strand) [8-mer GGTGGTCA]
2. AATGACCA (double strand) [8-mer AATGACCA]
3. GTGGTCAA (double strand) [8-mer GTGGTCAA]

1. 0.494
2. 0.496
3. 0.496

Dear colleague, could you please provide binding signal (PBM E-score (-0.5 to 0.5)) for the sequences listed below?
1. ATTGGTCA (double strand) [8-mer ATTGGTCA]
2. GAGTGACC (double strand) [8-mer GAGTGACC]

1: 0.495; 2: 0.496
